System: KB
assay.procedure: Antitumor activity against human KB cells
Format: functional
Parameters: concentration or dose not given beside the values
measurement.kind: Activity (%)
Entry rule: numbers only, all in %.

[in] Given Cc1c(O)c(C)c2c(c1O)C(=O)CC(c1ccsc1)O2 (stereo not given) , respond with its Activity.
[out] 16.07

[in] Given Cc1c(O)c(C)c2c(c1O)C(=O)CC(c1ccccc1O)O2 (stereo not given) , respond with its Activity.
[out] 44.54

[in] Given Cc1c(O)c(C)c2c(c1O)C(=O)C[C@@H](c1ccccc1)O2 [DEMETHOXYMATTEUCINOL] , respond with its Activity.
[out] 3.64

[in] Given Cc1c(O)c(C)c2c(c1O)C(=O)CC(c1cccc(O)c1)O2 (stereo not given) , respond with its Activity.
[out] 28.66

[in] Given Cc1c(O)c(C)c2c(c1O)C(=O)CC(c1c[nH]c3ccccc13)O2 (stereo not given) , respond with its Activity.
[out] 10.47

[in] Given COc1ccc(C2CC(=O)c3c(O)c(C)c(O)c(C)c3O2)cc1 (stereo not given) , respond with its Activity.
[out] -11.99

[in] Given Cc1c(O)c(C)c2c(c1O)C(=O)CC(c1ccco1)O2 (stereo not given) , respond with its Activity.
[out] -26.34

[in] Given Cc1c(O)c(C)c2c(c1O)C(=O)CC(c1ccc(O)c(O)c1)O2 (stereo not given) [CYRTOMINETIN] , respond with its Activity.
[out] 45.3

[in] Given COc1cc(O)ccc1C1CC(=O)c2c(O)c(C)c(O)c(C)c2O1 (stereo not given) , respond with its Activity.
[out] -18.83

[in] Given Cc1c(O)c(C)c2c(c1O)C(=O)CC(c1ccccc1[N+](=O)[O-])O2 (stereo not given) , respond with its Activity.
[out] 29.04

###

Field: pIC50. Provide a value for each of the compounds that follow.
assay.procedure: Inhibition of protein tyrosin kinase
condition.parameters: read-out: IC50
pIC50: −log10 of the molar value.

[in] Given COc1ccc(C2CC(=O)c3c(O)c(C)c(O)c(C)c3O2)cc1 (stereo not given) , respond with its pIC50.
[out] < 4.00

[in] Given O=c1c(-c2ccc(O)cc2)coc2cc(O)cc(O)c12 [GENISTEIN] , respond with its pIC50.
[out] 4.87

[in] Given Cc1c(O)c(C)c2c(c1O)C(=O)CC(c1ccc(O)cc1)O2 (stereo not given) , respond with its pIC50.
[out] < 3.70

[in] Given Cc1c(O)c(C)c2c(c1O)C(=O)CC(c1cccc(O)c1)O2 (stereo not given) , respond with its pIC50.
[out] 4.29

[in] Given Cc1c(O)c(C)c2c(c1O)C(=O)CC(c1ccccc1Cl)O2 (stereo not given) , respond with its pIC50.
[out] < 4.30

[in] Given COc1ccccc1C1CC(=O)c2c(O)c(C)c(O)c(C)c2O1 (stereo not given) , respond with its pIC50.
[out] < 4.00

[in] Given Cc1c(O)c(C)c2c(c1O)C(=O)CC(c1ccccc1O)O2 (stereo not given) , respond with its pIC50.
[out] 4.26

[in] Given COc1cc(O)ccc1C1CC(=O)c2c(O)c(C)c(O)c(C)c2O1 (stereo not given) , respond with its pIC50.
[out] < 3.70

[in] Given Cc1c(O)c(C)c2c(c1O)C(=O)CC(c1ccccc1[N+](=O)[O-])O2 (stereo not given) , respond with its pIC50.
[out] < 4.30

[in] Given Cc1c(O)c(C)c2c(c1O)C(=O)CC(c1ccc(O)c(O)c1)O2 (stereo not given) [CYRTOMINETIN] , respond with its pIC50.
[out] < 4.30

###

Field: Activity. Provide a value for each of the compounds that follow.
Test system: KB
assay.procedure: Antitumor activity against human KB cells
Format: functional
Design: concentration or dose not given beside the values
Entry rule: numbers only, all in %.

[in] Given Cc1c(O)c(C)c2c(c1O)C(=O)CC(c1ccc(O)cc1)O2 (centres undefined) , respond with its Activity.
[out] -7.21

[in] Given Cc1c(O)c(C)c2c(c1O)C(=O)CC(c1ccc([N+](=O)[O-])cc1)O2 (centres undefined) , respond with its Activity.
[out] -9.11

[in] Given Cc1c(O)c(C)c2c(c1O)C(=O)CC(c1ccc(Cl)cc1)O2 (centres undefined) , respond with its Activity.
[out] 15.89

[in] Given Cc1c(O)c(C)c2c(c1O)C(=O)CC(c1ccccc1Cl)O2 (centres undefined) , respond with its Activity.
[out] 28.63

###

assay.procedure: Inhibition of protein tyrosin kinase
measurement.kind: IC50

[
  {
    "compound": "Cc1c(O)c(C)c2c(c1O)C(=O)CC(c1ccco1)O2 (stereo unspecified)",
    "IC50": "Not Active"
  },
  {
    "compound": "COc1ccc(C2CC(=O)c3c(O)c(C)c(O)c(C)c3O2)c(OC)c1 (stereo unspecified)",
    "IC50": "Not Active"
  },
  {
    "compound": "Cc1c(O)c(C)c2c(c1O)C(=O)CC(c1c[nH]c3ccccc13)O2 (stereo unspecified)",
    "IC50": "Not Active"
  },
  {
    "compound": "Cc1c(O)c(C)c2c(c1O)C(=O)CC(c1ccc(Cl)cc1)O2 (stereo unspecified)",
    "IC50": "Not Active"
  },
  {
    "compound": "Cc1c(O)c(C)c2c(c1O)C(=O)CC(c1ccsc1)O2 (stereo unspecified)",
    "IC50": "Not Active"
  }
]

Continue with the compound presented below.
[in] Given Cc1c(O)c(C)c2c(c1O)C(=O)CC(c1ccc([N+](=O)[O-])cc1)O2 (stereo unspecified) , respond with its IC50.
[out] Not Active

Just for reference, ChEMBL document CHEMBL1221352 is where these values come from.
